B1: CLPTM1 (parent)
chain: LGCYAVYSLLYLEHKGWYSWVLSM

Variants of: B1
Experiment: protein stability index of a GFP-peptide fusion (GPS, HEK-293T) (PSI 1-6); higher = more stable;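 note: lentivirally expressed fusions sorted by FACS into six bins by GFP to DsRed ratio, PSI derived from sequencing read proportions per bin multiplied by bin number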
Conditions: c terminus: a fixed tail appended
Field: protein stability index. Provide a value for each of the variants that follow.
Lab note: jot the number down without any unit.

Per the record, `LGCYAVYSLLYLFHKGWYSWVLSM` has protein stability index of 3.1

Per the record, `LGCYAVYSLLYLEHKGWYSWVLFM` has protein stability index of 2.11

Per the record, `LGCYAVYSLLYLEHKGWYSWELSM` has protein stability index of 3.46

Per the record, `LGCYAVYSLLYLEHKGWYSKVLSM` has protein stability index of 2.65

Per the record, `LGCYAVYSLLYLEHKGTYSWVLSM` has protein stability index of 3.28

Per the record, `LGCYAVYSLLYNEHKGWYSWVLSM` has protein stability index of 4.59

Per the record, `LGCYAVYSLLYLEHKDWYSWVLSM` has protein stability index of 2.47

Per the record, `LGCYDVYSLLYLEHKGWYSWVLSM` has protein stability index of 2.12

Per the record, `YGCYAVYSLLYLEHKGWYSWVLSM` has protein stability index of 3.77

Per the record, `LGVYAVYSLLYLEHKGWYSWVLSM` has protein stability index of 3.36

Per the record, `LGCYWVYSLLYLEHKGWYSWVLSM` has protein stability index of 4.06

Per the record, `LGCYAVYSLLYLEHKAWYSWVLSM` has protein stability index of 4.05

Per the record, `LGCYAVYSILYLEHKGWYSWVLSM` has protein stability index of 2.15

Per the record, `LGCYAVYSLLYLEHKGWQSWVLSM` has protein stability index of 2.56

Per the record, `LGCYAVYSLLYLEYKGWYSWVLSM` has protein stability index of 3.4

Per the record, `LGCYAVYSLLYLEHKGWDSWVLSM` has protein stability index of 3.53

Per the record, `LGKYAVYSLLYLEHKGWYSWVLSM` has protein stability index of 2.74

Per the record, `LGCYAVYSLLYLEHKGWYSWHLSM` has protein stability index of 2.45

Per the record, `LGCYAVYSLLYLEHTGWYSWVLSM` has protein stability index of 4.26

Per the record, `LGCYAVYSLLYLEHKGWYVWVLSM` has protein stability index of 1.92

Per the record, `LGCYAVYSLLYLEHKGWYIWVLSM` has protein stability index of 3.66

Per the record, `LGCYAVYSLMYLEHKGWYSWVLSM` has protein stability index of 2.82

Per the record, `LGCYAVYSLLYLEHKGWYSWVLHM` has protein stability index of 2.63

Per the record, `LGCYAVYSLLYLEHKGWYSWVMSM` has protein stability index of 2.11

Per the record, `LGCYAVYSLLYLEHKGWYSSVLSM` has protein stability index of 2.21

Per the record, `LGCYAVYSLLYLEHKGWYSHVLSM` has protein stability index of 1.87

Per the record, `LGCYAVYSLLYLEHKGWYSWVASM` has protein stability index of 3.33

Per the record, `LGCYAVYSSLYLEHKGWYSWVLSM` has protein stability index of 2.77

Per the record, `LGCYAVYSLLYLEHKGWYSWVLST` has protein stability index of 2.61

Per the record, `LGCYAVYSLLYLEHKGWYSWVLTM` has protein stability index of 1.72

Per the record, `LGCYAVYSLLYHEHKGWYSWVLSM` has protein stability index of 2.99

Per the record, `LGCYAVYSLLYLEHKGWYSWFLSM` has protein stability index of 2.12

Per the record, `LGCYAVYSLLYLEHKGWPSWVLSM` has protein stability index of 3.5

Per the record, `LGCYAVYSLLYLEHKGWYSDVLSM` has protein stability index of 2.14

Per the record, `LGCYAVYSLLYLEHKGWYSWVLSL` has protein stability index of 2.6

Per the record, `LGCYAVYSLLYLEHKGWYSWWLSM` has protein stability index of 3.42

Per the record, `LGCYAVYSLLYLEHKGWYSWVLSC` has protein stability index of 4.42

Per the record, `LGCYAVYSLLYLEHKGWYSFVLSM` has protein stability index of 1.72

Per the record, `LGCYAVYSLLYLEHKGNYSWVLSM` has protein stability index of 4.13

Per the record, `LGCYAVYPLLYLEHKGWYSWVLSM` has protein stability index of 3.57

Per the record, `LPCYAVYSLLYLEHKGWYSWVLSM` has protein stability index of 2.76

Per the record, `LICYAVYSLLYLEHKGWYSWVLSM` has protein stability index of 2.87

Per the record, `LGCYAVYSLLYLEHKGWYSNVLSM` has protein stability index of 3.58

Per the record, `LGCYAVYSLLYLEHKGGYSWVLSM` has protein stability index of 2.14

Per the record, `LGCYAVFSLLYLEHKGWYSWVLSM` has protein stability index of 3.72

Per the record, `LGCFAVYSLLYLEHKGWYSWVLSM` has protein stability index of 2.33

Per the record, `LGCYAVYSLLYLEHAGWYSWVLSM` has protein stability index of 1.32

Per the record, `LGCYAVYSLLYLEHKGWYSWVLCM` has protein stability index of 3.78

Per the record, `LGCYAVYSLLYTEHKGWYSWVLSM` has protein stability index of 2.14

Per the record, `LGCYAVYSLLYLEHKGWYSWVLSN` has protein stability index of 2.39

Per the record, `LGCYAVYSLLYLPHKGWYSWVLSM` has protein stability index of 3.78

Per the record, `LGCYLVYSLLYLEHKGWYSWVLSM` has protein stability index of 4.56

Per the record, `LGCYAVYSLLYLEGKGWYSWVLSM` has protein stability index of 2.4

Per the record, `LGCYAVYVLLYLEHKGWYSWVLSM` has protein stability index of 1.96

Per the record, `LGCYAVYSLLYLEHPGWYSWVLSM` has protein stability index of 3.92

Per the record, `LGCYAKYSLLYLEHKGWYSWVLSM` has protein stability index of 2.83

Per the record, `LGCYAVYSLLYLENKGWYSWVLSM` has protein stability index of 2.58

Per the record, `LGCYAVYSLLYCEHKGWYSWVLSM` has protein stability index of 2.68

Per the record, `LGCYAVYSLLYLEHKGWYSWVPSM` has protein stability index of 3.42

Per the record, `FGCYAVYSLLYLEHKGWYSWVLSM` has protein stability index of 2.55

Per the record, `LGCYAVYSLLHLEHKGWYSWVLSM` has protein stability index of 2.09

Per the record, `LGCYAVYSLLYLEIKGWYSWVLSM` has protein stability index of 2.44

Per the record, `LGCYAVYSLLYLEHKGWYSWVGSM` has protein stability index of 1.72

Per the record, `LGCYAVYSELYLEHKGWYSWVLSM` has protein stability index of 2.13

Per the record, `LGCYAVYSLLYLEHKGWYSQVLSM` has protein stability index of 2.07

Per the record, `LGCYAVYSLQYLEHKGWYSWVLSM` has protein stability index of 3.9

Per the record, `LGCYAVYSLLYIEHKGWYSWVLSM` has protein stability index of 3.36

Per the record, `LGLYAVYSLLYLEHKGWYSWVLSM` has protein stability index of 3.21

Per the record, `LGCYAVYSLLYLEHKEWYSWVLSM` has protein stability index of 2.88

Per the record, `LGCYAVYSLHYLEHKGWYSWVLSM` has protein stability index of 2.84

Per the record, `LGCYAVYSLLYVEHKGWYSWVLSM` has protein stability index of 2.89

Per the record, `LGCYAVYSLLYLEHKGWYWWVLSM` has protein stability index of 2.66

Per the record, `LGCYIVYSLLYLEHKGWYSWVLSM` has protein stability index of 3.28

Per the record, `LGCYAVYSLLYLEHKGWYSWVLRM` has protein stability index of 2.26

Per the record, `LGCYAVYSLLYLEHKGWYSGVLSM` has protein stability index of 2.21

Per the record, `LGCYAVYSLLYLEHFGWYSWVLSM` has protein stability index of 2.41

Per the record, `LGCYAVYNLLYLEHKGWYSWVLSM` has protein stability index of 4.1

Per the record, `LGCYAVYSLWYLEHKGWYSWVLSM` has protein stability index of 2.32

Per the record, `LGCYAVKSLLYLEHKGWYSWVLSM` has protein stability index of 2.19

Per the record, `LGCYEVYSLLYLEHKGWYSWVLSM` has protein stability index of 3.12

Per the record, `LGCYAVYSLLYLEHKGWYAWVLSM` has protein stability index of 4.22

Per the record, `LGCYAVYSLLYLEMKGWYSWVLSM` has protein stability index of 2.53

Per the record, `LGCYAVYSLKYLEHKGWYSWVLSM` has protein stability index of 3.39

Per the record, `LSCYAVYSLLYLEHKGWYSWVLSM` has protein stability index of 1.47

Per the record, `LGCYAVYSLLYLEHKGWYSMVLSM` has protein stability index of 3.21

Per the record, `LGCYAVYSLLYLERKGWYSWVLSM` has protein stability index of 2.22

Per the record, `LGCYAVYSLLYLEHKGWYSWVLSG` has protein stability index of 4.14

Per the record, `LGCYAVYSLLYLHHKGWYSWVLSM` has protein stability index of 3.66

Per the record, `LGCYAVYSLLYLEHKGWYSWVKSM` has protein stability index of 2.01

Per the record, `LGCYAVYSLLYMEHKGWYSWVLSM` has protein stability index of 4.09

Per the record, `LMCYAVYSLLYLEHKGWYSWVLSM` has protein stability index of 3.58
